All figures here come from the supplement of paper PMC10567573.

B1: LRRC45 (parent)
chain: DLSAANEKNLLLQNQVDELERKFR

variants of: B1; test: protein stability index of a GFP-peptide fusion (GPS, HEK-293T) (PSI 1-6); higher = more stable; settings: c terminus: a fixed tail appended;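 also: lentivirally expressed fusions sorted by FACS into six bins by GFP to DsRed ratio, PSI derived from sequencing read proportions per bin multiplied by bin number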
Label rule not met if protein stability index falls below 4; label rule met in every other case.

1) DLSAANEKQLLLQNQVDELERKFR [N9Q]: rule met
2) DLSAANEKNLLLQNQVDELERKFD [R24D]: rule met
3) DLSAANEKNLLLQNQVDELYRKFR [E20Y]: rule not met
4) DLSAANEKNLLLQNQVDHLERKFR [E18H]: rule not met
5) DLSALNEKNLLLQNQVDELERKFR [A5L]: rule not met
6) DLSAANEKNLLLQNQVDECERKFR [L19C]: rule met
